Molecular target: T1, PUF4 RNA-binding domain (Saccharomyces cerevisiae, UniProt P25339 537-888)
T1 sequence: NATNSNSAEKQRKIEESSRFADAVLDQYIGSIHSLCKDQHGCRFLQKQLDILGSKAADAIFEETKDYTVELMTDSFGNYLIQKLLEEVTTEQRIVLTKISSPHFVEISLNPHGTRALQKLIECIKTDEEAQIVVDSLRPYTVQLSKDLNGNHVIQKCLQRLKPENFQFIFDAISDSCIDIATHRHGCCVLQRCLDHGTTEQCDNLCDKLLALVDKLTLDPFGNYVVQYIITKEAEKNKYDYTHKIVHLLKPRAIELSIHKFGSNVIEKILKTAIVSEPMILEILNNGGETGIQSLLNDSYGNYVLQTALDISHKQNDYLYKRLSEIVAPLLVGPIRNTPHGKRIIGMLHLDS
Test: Mg; RNA-MaP; 20 mM Na-HEPES pH 7.4, 30 mM KOAc, 0.75 mM MgCl2, 0.1% Tween-20, 5% glycerol, 0.1 mg/mL BSA, 2 mM DTT; 25 C; 0.0125-409.6 nM protein
Details: tags: N-His6-TEV cleaved; C-SNAP kept, Cy3B-labelled; label: tethered on chip by stalled RNA polymerase
Please go through the items and note down their log10(Kd).
Recall that a logarithmic scale is used here: each number is log10 of Kd in nM.

Recorded log10(Kd), per entry:
1) Ic_S2_P4E.1_K4.1_C4.1_H4.1_A4.1_[T5A]_[A6C]_F4.1_[T8C]_T4.1 (ssRNA) RNA: UUUGAUUAAUAUGAUAUCGUUCUUUCUUGUAACUCAUUCUUUCUCGAUAUCAUAUUAAUCUUU | 2.51
2) Ic_S2_P4E.1_K4.1_C4.1_H4.1_A4.1_[T5G]_[A6T]_[T7C]_F4.1_[T8C]_[A9T]_T4.1 (ssRNA) RNA: UUUGAUUAAUAUGAUAUCGUUCUUUCUUGUAGUCCUUUCUUUCUCGAUAUCAUAUUAAUCUUU | 2.08
3) UCUCUUUGUAGUAUAUCUCUU (ssRNA) [Ic_S1_P4E.1_K4.1_C4.1_H4.1_A4.1_[T5G]_[A6T]_[T7A]_F4.1_T4.1] | 1.05
4) Ic_S2_P5E.1_K5.1_C5.1_H5.1_A5.1_[T6C]_[A7T]_F5.1_[T8A]_[A10C]_T5.1 (ssRNA) RNA: UUUGAUUAAUAUGAUAUCGUUCUUUCUUGUAUCUAUCUUCUUUCUCGAUAUCAUAUUAAUCUUU | 1.10
5) UCUCUUUGUAUCCUUUCUCUU (ssRNA) [Ic_S1_P4E.1_K4.1_C4.1_H4.1_A4.1_[A6C]_[T7C]_F4.1_[A9T]_T4.1] | 1.65

I need log10(Kd) for every entry listed below, if you could help.
1. UCUCUUUGUAUAUCUUUAUCUCUU (ssRNA) [Ie_S1_P4E.1_K4.1_C4.1_H4.1_A4.1_[+6TCT]_F4.1_T4.1]
2. Id_ii_S2_P5E.2_K5.1_C5.2_[C-2T]_[T-1A]_H5.1_A5.1_F5.1_T5.2_[T11A] (ssRNA) RNA: UUUGAUUAAUAUGAUAUCGUUCUUUCUUAUGUAUUAUUAAAUUCUUUCUCGAUAUCAUAUUAAUCUUU
3. Id_ii_S4_P3E.2_K3.1_C3.2_[C-2T]_[T-1A]_H3.1_A3.1_F3.1_T3.2_[T9C]_[A10T] (ssRNA) RNA: UUUGACAACUGAUCGUUCUUUCUUAUGUAUAUACUUUCUUUCUCGAUCAGUUGUCUUU
4. Ic_S4_P4E.1_K4.1_C4.1_H4.1_A4.1_[T5A]_[A6T]_[T7C]_F4.1_[T8C]_T4.1 (ssRNA) RNA: UUUGACAACUGAUCGUUCUUUCUUGUAAUCCAUUCUUUCUCGAUCAGUUGUCUUU
5. Ic_S4_P4E.1_K4.1_C4.1_H4.1_A4.1_[T5C]_[A6T]_F4.1_[T8C]_[A9C]_T4.1 (ssRNA) RNA: UUUGACAACUGAUCGUUCUUUCUUGUACUUCCUUCUUUCUCGAUCAGUUGUCUUU

Reply text:
1: 1.14; 2: 1.09; 3: 0.78; 4: 2.67; 5: 1.98

I need log10(Kd) for every entry listed below, if you could help.
1. Ib_S2_P5E.1_K5.1_C5.1_H5.1_A5.1_F5.1_[T9A]_[A10G]_T5.1 (ssRNA) RNA: UUUGAUUAAUAUGAUAUCGUUCUUUCUUGUAUUAUAGUUCUUUCUCGAUAUCAUAUUAAUCUUU
2. Id_ii_S4_P3E.2_K3.1_C3.2_[C-2T]_[T-1C]_H3.1_A3.1_F3.1_T3.2_[A10T] (ssRNA) RNA: UUUGACAACUGAUCGUUCUUUCUUCUGUAUAUAUUUUCUUUCUCGAUCAGUUGUCUUU
3. Ic_S2_P5E.1_K5.1_C5.1_H5.1_A5.1_[T5C]_[T6C]_[A7T]_F5.1_[T8C]_[T9G]_[A10C]_T5.1 (ssRNA) RNA: UUUGAUUAAUAUGAUAUCGUUCUUUCUUGUACCUCGCUUCUUUCUCGAUAUCAUAUUAAUCUUU
4. UCUCUUUGUAACUGAUCUCUU (ssRNA) [Ic_S1_P4E.1_K4.1_C4.1_H4.1_A4.1_[T5A]_[A6C]_F4.1_[T8G]_T4.1]
5. Ib_S4_P5E.1_K5.1_C5.1_H5.1_A5.1_[T5C]_[T6A]_F5.1_T5.1 (ssRNA) RNA: UUUGACAACUGAUCGUUCUUUCUUGUACAAUUAUUCUUUCUCGAUCAGUUGUCUUU
6. UCUCUUUGUACCAUUUUCUCUU (ssRNA) [Ic_S1_P5E.1_K5.1_C5.1_H5.1_A5.1_[T5C]_[T6C]_F5.1_[A10T]_T5.1]
7. UCUCUUUGUACACUCCUCUCUU (ssRNA) [Ic_S1_P5E.1_K5.1_C5.1_H5.1_A5.1_[T5C]_[T6A]_[A7C]_F5.1_[T9C]_[A10C]_T5.1]
8. Ie_S2_P3E.2_K3.1_C3.2_H3.1_A3.1_F3.1_[+8CCT]_T3.2 (ssRNA) RNA: UUUGAUUAAUAUGAUAUCGUUCUUUCUCUUGUAUAUACCUUAUUCUUUCUCGAUAUCAUAUUAAUCUUU

Reply text:
0.49
0.11
2.00
2.83
0.60
0.85
0.88
0.45

I need log10(Kd) for every entry listed below, if you could help.
1. Ie_S4_P3E.2_K3.1_C3.2_H3.1_[+4CCC]_A3.1_F3.1_T3.2 (ssRNA) RNA: UUUGACAACUGAUCGUUCUUUCUCUUGUACCCUAUAUAUUCUUUCUCGAUCAGUUGUCUUU
2. Ic_S4_P4E.1_K4.1_C4.1_H4.1_A4.1_[T5A]_[A6T]_[T7A]_F4.1_T4.1 (ssRNA) RNA: UUUGACAACUGAUCGUUCUUUCUUGUAAUAUAUUCUUUCUCGAUCAGUUGUCUUU
3. UCUCUUUCUAUAUAUUACCUCUCUU (ssRNA) [Id_ii_S1_P4E.3_K4.2_C4.2_[C-2T]_[T-1C]_H4.2_A4.1_F4.1_T4.2_[G10C]_[T11C]]

Reply text:
[0.20, 0.29, 1.40]
